Every entry's value here was drawn from the supplement of paper PMC10567573.

B1: ESRRA (parent)
chain: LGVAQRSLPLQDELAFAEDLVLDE

# Variants of: B1
# Test method notes: protein stability index of a GFP-peptide fusion (GPS, HEK-293T) (PSI 1-6); higher = more stable;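 also: lentivirally expressed fusions sorted by FACS into six bins by GFP to DsRed ratio, PSI derived from sequencing read proportions per bin multiplied by bin number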
# Measurement context: c terminus: a fixed tail appended
Parameter class (string): assigned from measured protein stability index. Ranges: bottom bin: < 3; middle bin: ≥ 3 and < 4; top bin: ≥ 4

1) L14D
top bin
2) L8S
bottom bin
3) L10D
top bin
4) D12M
bottom bin
5) D23C
bottom bin
6) P9Y
middle bin
7) A17T
middle bin
8) F16T
top bin
9) P9H
middle bin
10) F16D
middle bin
11) D23Y
bottom bin
12) L8R
bottom bin
13) E13D
bottom bin
14) L1R
bottom bin
15) E24R
middle bin
16) R6W
bottom bin
17) R6C
bottom bin
18) Q5G
bottom bin
19) A15I
top bin
20) R6M
bottom bin
21) L8A
middle bin
22) D12R
bottom bin
23) A17C
top bin
24) V21K
top bin
25) A15D
top bin
26) L10Y
top bin
27) L1Y
bottom bin
28) S7L
bottom bin
29) D23L
bottom bin
30) A17V
top bin
31) E18N
top bin
32) A17Q
top bin
33) V3I
bottom bin
34) L10H
top bin
35) D23I
bottom bin
36) L14N
top bin
37) D19R
bottom bin
38) R6Q
middle bin
39) A15Y
top bin
40) E24Y
bottom bin
